- System: wheat germ agglutinin (Triticum aestivum), Alexa647-labelled
- method: wheat germ agglutinin binders on compound microarrays, profiling panel, artefact control for SMM control-protein annotation, biochemical, small-molecule microarray, 635/667 nm fluorescence (AID 1140);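 note: score merges 667 nm feature emission with signal to noise over triplicate slides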
- run_conditions: WGA-A647 binding, 635 nm fluorescence, higher = more signal
Can you tell me composite z-score for the items I'm about to list?
Keep it simple and answer with nothing but the number.

Query :: Query (compound): "CCOC(=O)C[C@H]1[C@H](OC(=O)c2cc3ccccc3oc2=O)[C@@H](NC(=O)c2ccc3ccccc3c2)c2cc(OCCCO)ccc2N1C(=O)Cc1ccc(OC)cc1" ; field requested: composite z-score
Result :: 0.664

Query :: Would you kindly repeat that for "Cc1ccc(S[C@]2(C(=O)NCc3ccccc3)CC(=O)N(Cc3cc(C(F)(F)F)cc(C(F)(F)F)c3)[C@@H]2c2ccc(CO)cc2I)cc1" ?
Result :: -0.799

Query :: And what about the compound COc1ccc(C(O)C2C=CC3C(=O)N(c4ccccc4)C(=O)C3N2Nc2ccc(C(C)C)cc2)c2ccccc12 (configuration not stated) ?
Result :: 0.838

Query :: Repeat for the following compound: "COc1ccc(C(=O)Nc2cccc(CN3C(=O)[C@]4(O[C@H](CCn5cc([C@H](O)c6ccccc6)nn5)[C@@H]([Si](C)(C)c5ccc(OC)cc5)[C@@H]4C)c4ccccc43)c2)cc1"
Result :: 0.12

Query :: And for "COc1cccc(/C=C(\C#N)C(=O)Nc2c(C)n(C)n(-c3ccccc3)c2=O)c1" ?
Result :: 0.713

Query :: Follow-up item: COc1cc(NN2C(C(O)c3cc(OC)c(OC)c(OC)c3)C=CC3C(=O)N(c4ccccc4)C(=O)C32)cc(OC)c1OC (configuration not stated)
Result :: 0.848

Query :: Field entry: "[N-]=[N+]=NCc1ccccc1[C@@H]1OC(c2ccc(OCCCO)cc2)=N[C@]1(Cc1ccccc1N=[N+]=[N-])C(=O)N1CCCCC1"
Result :: 0.756

Query :: // same read-out, input: "COc1ccc([Si](C)(C)[C@H]2[C@H](CC(=O)N3CCC[C@H]3CO)O[C@@]3(C(=O)N(Cc4ccc(N5CCC5=O)cc4)c4ccccc43)[C@@H]2C)cc1"
Result :: 0.211

Query :: Again, but for "[N-]=[N+]=NCc1ccccc1C[C@@]1(C(=O)N2CCCCC2)N=C(c2ccc(OCCCO)cc2)O[C@@H]1c1ccccc1CN=[N+]=[N-]"
Result :: 1.28

Query :: For CC1(C)C(=O)C(c2ccccc2)=C2CN3C(=O)N(CCc4ccccc4)C(=O)C3(Cc3ccc(F)cc3)C=C21 (configuration not stated) then?
Result :: 0.432

Query :: Proceed to CCOC(=O)C1=CCN(S(=O)(=O)c2ccc(C)cc2)C1c1ccccc1 (configuration not stated)
Result :: 0.652

Query :: Let us now turn to "COc1ccc([Si](C)(C)[C@H]2[C@H](CCO)O[C@@]3(C(=O)N(Cc4ccccc4)c4ccc(N5C(=O)c6ccccc6Oc6ccccc65)cc43)[C@@H]2C)cc1"
Result :: 1.23

Query :: Also "COCCOC(=O)N1C(=O)[C@@]2(c3cc(C#CCNC(N)=O)ccc31)[C@H](c1ccc(O)cc1)N1[C@H](c3ccccc3)[C@H](c3ccccc3)OC(=O)[C@H]1[C@@H]2C(N)=O" , if possible.
Result :: -1.18

Query :: What do we get for "NC(=O)[C@@H]1[C@H]2C(=O)O[C@H](c3ccccc3)[C@H](c3ccccc3)N2[C@H](c2ccc(OCCO)cc2)[C@@]12C(=O)Nc1ccc(C#CCCO)cc12" ?
Result :: 0.659

Query :: Thanks! And O=C1OCCC/C=C\[C@H]2OC34C=CCN(c5ccc6ccccc6c5)C(=O)[C@H]3N(CCCO)C(=O)[C@@H]4C12 (some centres not stated) ?
Result :: 0.576

Query :: Please answer likewise for "C=C(COC)C(=O)CC[C@H](OC(=O)c1cccnc1)c1ccc(CO)o1"
Result :: 0.264

Query :: Request: C=CCC(OC(C)=O)[C@@H]1[C@@H](N(Cc2ccc(-c3ccccc3)cc2)C(=O)c2ccc(C)cc2)c2cc(OCCCO)ccc2N1C(=O)Cc1ccc2ccccc2c1 (some centres not stated)
Result :: 0.0607

Query :: Also "O=C1N[C@@H](Cc2ccccc2)C(=O)N2[C@@H]1C[C@@H](C(=O)O)[C@H]2c1ccc(O)cc1" , if possible.
Result :: 0.828

Query :: Now the compound "COc1ccc([Si](C)(C)[C@@H]2[C@@H](CC(=O)N3Cc4ccccc4C[C@H]3CO)O[C@]3(C(=O)N(Cc4ccc(N5CCC5=O)cc4)c4ccccc43)[C@H]2C)cc1"
Result :: 0.283

Query :: # iterate: CCCCCCCCCCC(O)C1C=CC2C(=O)N(C)C(=O)C2N1Nc1cc(OC)c(OC)c(OC)c1 (configuration not stated)
Result :: 0.458

Query :: Same for "COCCOC(=O)N1C(=O)[C@@]2(c3cc(C#Cc4ccc(OC)cc4)ccc31)[C@H](c1ccc(OCCO)cc1)N1[C@H](c3ccccc3)[C@H](c3ccccc3)OC(=O)[C@H]1[C@@H]2C(=O)Nc1nc2ccccc2s1"
Result :: 0.609

Query :: Continue with "O=C(N1CCOCC1)[C@@]1(CCS(=O)(=O)c2ccccc2)N=C(c2ccc(OCCCO)cc2)O[C@H]1c1ccccc1"
Result :: 1.29

Query :: Now the same for "C=CCNC(=O)[C@H]1[C@@H]2C(=O)O[C@@H](c3ccccc3)[C@@H](c3ccccc3)N2[C@@H](c2ccc(OCCO)cc2)[C@]12C(=O)N(C(=O)OCCOC)c1ccc(C#Cc3ccc(OC)cc3)cc12"
Result :: 0.719

Query :: How about "C=C[C@@H](C)[C@H](O)c1ccc(OCCO)cc1" ?
Result :: -0.858

Query :: Further, for "COCCOC(=O)N1C(=O)[C@@]2(c3cc(C#CCC(C(=O)OC)C(=O)OC)ccc31)[C@H](C(=O)NC[C@H](O)c1ccccc1)[C@H]1C(=O)O[C@H](c3ccccc3)[C@H](c3ccccc3)N1[C@@H]2c1ccc(O)cc1" ?
Result :: 1.02

Query :: Now this one: "CCCCC(=C=CC[C@H](O)c1ccc(OCCO)cc1)C[C@H](O)c1cc(Cl)cc(Cl)c1O"
Result :: 0.776

Query :: Now consider "O=C1[C@@]23C=C(Br)[C@H](C[C@@H]2COC3)[C@@]12CO2" and answer again.
Result :: 0.0439

---

- system: Left-right determination factor 2 (Homo sapiens) (UniProt O00292)
- Sequence (O00292 whole entry, looked up): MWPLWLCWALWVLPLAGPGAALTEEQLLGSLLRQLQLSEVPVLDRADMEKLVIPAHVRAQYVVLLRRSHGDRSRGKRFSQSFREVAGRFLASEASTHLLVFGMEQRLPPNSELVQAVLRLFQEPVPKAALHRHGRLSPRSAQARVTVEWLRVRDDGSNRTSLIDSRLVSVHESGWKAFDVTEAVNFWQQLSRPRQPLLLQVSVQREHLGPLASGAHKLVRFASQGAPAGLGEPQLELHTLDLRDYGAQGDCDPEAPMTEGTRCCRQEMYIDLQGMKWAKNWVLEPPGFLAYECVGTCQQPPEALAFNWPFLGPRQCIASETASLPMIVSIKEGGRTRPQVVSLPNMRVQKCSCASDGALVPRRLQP
- method: LEFTY2 binders on small-molecule microarrays, primary screen, biochemical, small-molecule microarray, 635 nm fluorescence scan (AID 1110)
- run_conditions: LEFTY2 binding, higher = more signal
assay_endpoint: composite z-score
Give the figure by itself; no unit, no explanation.

Query :: Give the reported composite z-score for COC(=O)C1N=C(c2ccc(OCCCO)cc2)N(c2ccccc2)O1 (stereo unspecified) (system: Left-right determination factor 2 (Homo sapiens) (UniProt O00292)).
Result :: 0.681

Query :: Here is the next compound: "COCCCNC(=O)[C@@]1(c2ccc([N+](=O)[O-])cc2)CC(=O)N(C(C)C)[C@@H]1c1ccc(CO)cc1"
Result :: -0.195

Query :: Quick one: COc1cc(NN2C(C(O)c3cc(OC)c(OC)c(OC)c3)C=CC3C(=O)N(c4ccccc4)C(=O)C32)cc(OC)c1OC (stereo unspecified)
Result :: 0.307

Query :: Now give it for "C=C[C@H](C)[C@H](OC(=O)Nc1ccc(OC)cc1)c1ccc(OCCO)cc1" too.
Result :: -2.08

Query :: Can you handle CN1C(=O)C2C(C1=O)C1C=C(CCCO)C2C(c2cccs2)N1Cc1cc2c(cc1Br)OCO2 (stereo unspecified) next?
Result :: 0.772

Query :: // same read-out, input: "CN1C(=O)[C@@H]2[C@@H](CC(COc3ccccc3)=C([C@H](O)CCc3ccccc3)[C@@H]2CO)C1=O"
Result :: 0.0752

Query :: Then "COc1cccc(/C=C(\C#N)C(=O)Nc2c(C)n(C)n(-c3ccccc3)c2=O)c1" ?
Result :: 0.303

Query :: For "CC(C)CNC(=O)[C@@]1(c2ccc([N+](=O)[O-])cc2)CC(=O)N(C2CCCCC2)[C@@H]1c1ccc(CO)cc1" then?
Result :: 0.155

Query :: What do we get for O=C1OCCC/C=C\[C@H]2OC34C=CCN(c5ccc6ccccc6c5)C(=O)[C@H]3N(CCCO)C(=O)[C@@H]4C12 (stereo partly specified) ?
Result :: -0.548

Query :: Do the same for "COCCOC(=O)N1C(=O)[C@@]2(c3cc(C#Cc4ccc(OC)cc4)ccc31)[C@H](c1ccc(OCCO)cc1)N1[C@H](c3ccccc3)[C@H](c3ccccc3)OC(=O)[C@H]1[C@@H]2C(=O)Nc1nc2ccccc2s1" please
Result :: 0.225

Query :: Queued: COc1cc2c(cc1O)C(c1ccc(CN3CCCC3)cc1)N(C)CC2 (stereo unspecified)
Result :: 0.351

Query :: // repeat for CC(C)OC(=O)CC(=O)CC(O)c1ccc([N+](=O)[O-])cc1 (stereo unspecified) and report
Result :: -0.698

Query :: // query: "CCOC(=O)C1=C[C@@H](c2ccccc2)N(S(=O)(=O)c2ccc(C)cc2)[C@H]1c1ccccc1"
Result :: -0.063

Query :: // same read-out, input: NC(=O)N1C(=O)C2C(C1=O)C1C=C(CCCO)C2C(C2CC2)N1Cc1cccc(OC(F)(F)F)c1 (stereo unspecified)
Result :: -0.219

Query :: Consider next the compound "CCOC(=O)C[C@H]1[C@H](OC(=O)c2ccccc2-c2ccccc2)[C@@H](NC(=O)c2ccc3ccccc3n2)c2cc(OCCCO)ccc2N1C(=O)c1ccccc1" in the same way.
Result :: 0.487

Query :: Entry "COc1ccc(C(=O)Nc2cccc(CN3C(=O)[C@]4(O[C@H](CCn5cc([C@H](O)c6ccccc6)nn5)[C@@H]([Si](C)(C)c5ccc(OC)cc5)[C@@H]4C)c4ccccc43)c2)cc1" please
Result :: 0.126
